- experiment-notes: in vivo
- condition-set: female, BALB/c, mouse, ip, 15 mg/kg

[
  {
    "smiles": "CO[C@@H]1[C@@H](OC(N)=O)[C@@H](O)[C@H](Oc2ccc3c(O)c(NC(=O)c4ccc(O)c(CC=C(C)C)c4)c(=O)oc3c2C)OC1(C)C",
    "Cmax, µM": 10.7
  }
]

* * *

- experiment-notes: in vivo
- condition-set: female, BALB/c, mouse, ip, 15 mg/kg
metric: AUC(0-t)

[
  {
    "smiles": "CO[C@@H]1[C@@H](OC(N)=O)[C@@H](O)[C@H](Oc2ccc3c(O)c(NC(=O)c4ccc(O)c(CC=C(C)C)c4)c(=O)oc3c2C)OC1(C)C",
    "reported": "33.2 µM·h"
  }
]

Reference source: paper PMC7385433
